Each record here notes measured Kb.
Molecular target: angiotensin II receptor (Oryctolagus cuniculus)
Construct: Main abdominal aortas were removed and placed in Krebs-Henseleit buffer; from tissue; host or cells: main abdominal aorta rings (3 mm) of female New Zealand White rabbits
Assay: Angiotensin II functional assay: antagonism of contraction of rabbit aorta (isolated tissue, Schild analysis)
Design: species or system rabbit (female New Zealand White)
Settings: antagonist incubated 30 minutes, negative logarithm of antagonist concentration that requires doubling of the angiotensin II concentration, read-out: pA2 (converted)
readout label: Kb

1. O=C(O)c1cccnc1NCc1ccc(-c2ccccc2-c2nn[nH]n2)cc1 [Example 226]
1.29 nM
2. CCCCN(Cc1ccc(-c2ccccc2-c2nn[nH]n2)cc1)c1ncccc1C(=O)O [Example 229]
0.339 nM
3. CCCN(Cc1ccc(-c2ccccc2-c2nn[nH]n2)cc1)c1ncccc1C(O)C(F)(F)C(=O)OCC (centres unmarked) [Example 135]
3.39 nM
4. CCCN(Cc1ccc(-c2ccccc2-c2nn[nH]n2)cc1)c1ncccc1C(O)CC(=O)O (centres unmarked) [Example 140]
1.45 nM
5. CCCCN(Cc1ccc(-c2ccccc2-c2nnn[nH]2)cc1)c1ncncc1C(=O)OC(C)OC(=O)C1CCN(C)CC1 (centres unmarked) [Example 121]
0.257 nM
6. CCCN(Cc1ccc(-c2ccccc2-c2nn[nH]n2)cc1)c1nccc(C)c1C(=O)O [Example 194]
0.229 nM
7. CCCCN(Cc1ccc(-c2ccccc2-c2nn[nH]n2)cc1)c1nccnc1C(=O)O [Example 157]
0.135 nM
8. CCCCN(Cc1ccc(-c2ccccc2-c2nn[nH]n2)cc1)c1nnc(Cl)cc1C(=O)O [Example 168]
0.851 nM

###

Target: angiotensin II receptor (Oryctolagus cuniculus, UniProt P34976)
Construct: Main abdominal aortas were removed and placed in Krebs-Henseleit buffer; from tissue; host or cells: main abdominal aorta rings (3 mm) of female New Zealand White rabbits
Sequence (P34976 whole entry): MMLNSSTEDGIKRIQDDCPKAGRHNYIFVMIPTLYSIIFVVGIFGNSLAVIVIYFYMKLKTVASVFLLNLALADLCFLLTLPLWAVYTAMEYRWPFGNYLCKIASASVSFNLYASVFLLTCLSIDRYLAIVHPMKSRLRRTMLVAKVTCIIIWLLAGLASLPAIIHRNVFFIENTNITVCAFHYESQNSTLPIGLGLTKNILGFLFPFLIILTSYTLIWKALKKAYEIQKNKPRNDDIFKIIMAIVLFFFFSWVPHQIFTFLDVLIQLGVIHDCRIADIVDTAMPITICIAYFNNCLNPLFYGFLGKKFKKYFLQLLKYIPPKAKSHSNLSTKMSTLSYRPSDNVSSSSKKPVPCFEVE
Test: Angiotensin II functional assay: antagonism of contraction of rabbit aorta (isolated tissue, Schild analysis)
Set-up: species or system rabbit (female New Zealand White)
Conditions: antagonist incubated 30 minutes, negative logarithm of antagonist concentration that requires doubling of the angiotensin II concentration, read-out: pA2 (converted)
Structures can show the parent of a compound that is named as a salt.
Param threshold (0.9 nM) applies to Kb; output 1 when value >= threshold, -1 when value < threshold.

1. CCCCN(Cc1ccc(-c2ccccc2-c2nnn[nH]2)cc1)c1nc(F)ccc1C(=O)O
-1
2. CCCN(Cc1ccc(-c2ccccc2-c2nn[nH]n2)cc1)c1nc(F)ccc1C(=O)O
-1
3. CCCN(Cc1ccc(-c2ccccc2-c2nn[nH]n2)cc1)c1ncncc1C(=O)O [Example 71, hydrochloride]
-1
4. CCCN(Cc1ccc(-c2ccccc2-c2nn[nH]n2)cc1)c1ncccc1C(=O)NS(=O)(=O)c1ccccc1
1
5. CCCCN(Cc1ccc(-c2ccccc2-c2nnn[nH]2)cc1)c1ncncc1C(=O)O [Example 53, hydrochloride]
-1
6. CCCN(Cc1ccc(-c2ccccc2-c2nnn[nH]2)cc1)c1ncccc1C(=O)C(F)(F)C(=O)OCC
1

Taken from patent US5250548A.
